assay: Tissue distribution of Compound I (liver vs other tissues); assay type: in vivo; conditions: liver relative to plasma, kidney, lungs, heart, and skin, read-out: Concentration in the liver relative to other tissues
Metric: Kp

# Line notation, Metric, Value
data = [
    ("Cn1cc(C(=O)O)c2ccc(N3CCC(OCc4c(-c5c(Cl)cccc5Cl)noc4C4CC4)CC3)cc21", "Kp", "~20"),
]
